Numbers sourced from patent US10844044B2.

Recorded GI50 values for a group of molecules are listed next.
test system: MV4:11 human cancer cell lines; test: Anti-proliferative activity, CellTiter-Glo viability assay, 7 day protocol; type: cell-based; conditions: Homo sapiens, MV4-11, 168 h, MV4:11 cells, 7 day incubation, read-out: GI50 on cellular proliferation of MV4:11 human cancer cell lines
parameter: GI50 (nM)

> print(dat)
                                    molecule  qualifier.symbol  numeric.value
 1  Cc1cc([C@@H](NC(=O)c2cc(CN3CCOC3=N)cc(-c3cn(C)nc3C(F)(F)F)n2)C2CC2)ccc1F                 =            940
 2  COc1cc(OC)cc(C(NC(=O)c2cc(Cn3ccn(C)c3=N)cc(-c3ncc(F)cc3C)c2)C2CC2)c1 (stereo not drawn)                 =           2700
 3  COc1cc(CN(C)C(=O)c2cc(Cn3ccn(C)c3=N)cc(-c3c(C)ccc4[nH]ncc34)c2)cc(OC)c1                 =          30000
 4  Cc1cccc(C2(NC(=O)c3cc(Cn4ccn(C)c4=N)cc(-c4cn(C)nc4C(F)(F)F)c3)CCC2)c1                 =            220
 5  Cc1cc([C@@H](NC(=O)c2cc(Cn3ccsc3=N)cc(-c3cn(C)nc3C(F)(F)F)c2)C2CC2)ccc1F                 <            100
 6  Cn1cc(-c2cc(CN3CCOC3=N)cc(C(=O)N[C@H](c3ccc(Cl)c(Cl)c3)C3CC3)c2)c(C(F)(F)F)n1                 <            100
 7  Cc1ncccc1-c1cc(Cn2ccn(C)c2=N)cc(C(=O)NCc2ncc(Cl)cn2)c1                 =          22000
 8  Cn1ccn(Cc2cc(C(=O)NC3(c4cccc(Br)c4)CCC3)c(F)c(-c3ccc(F)cc3C(F)(F)F)c2)c1=N                 =            580
 9  COc1cc([C@@H](NC(=O)c2cc(Cn3ccn(C)c3=N)cc(-c3cn(C)nc3C(F)(F)F)c2)C2CC2)ncc1F                 <            100
10  Cc1cc(CNC(=O)c2cc(Cn3ccn(C)c3=N)cc(-c3ccc(F)cc3C(F)(F)F)c2F)ccc1Cl                 =            300
11  Cc1cc(-c2cc(CN3CCCC3=N)cc(C(=O)NCc3ccc(Cl)c(Cl)c3)c2)c(C)cc1F                 =           1400
12  COc1ccnc([C@@H](NC(=O)c2cc(Cn3ccn(C)c3=N)cc(-c3ccc(F)cc3C)c2)C2CC2)c1                 =            250
13  Cc1cc(CNC(=O)c2cc(Cn3ccn(C)c3=N)cc(-c3ccc(F)cc3C)n2)ccc1Cl                 =            450
14  Cc1cc(F)ccc1-c1cc(Cn2ccn(C)c2=N)cc(C(=O)N[C@@H](C)c2ccc(F)c(C(F)(F)F)c2)c1                 =            300
15  Cc1nc(F)ccc1-c1cc(Cn2ccn(C)c2=N)cc(C(=O)NCc2ccc(Cl)c(Cl)c2)c1                 =            300

* * *

target: WDR5 (Homo sapiens (Human)); assay: TR-FRET binding assay (displacement of 10mer-Thr-FAM probe from WDR5); conditions: read-out: Ki for Inhibition of WDR5 by TR-FRET assay; TR-FRET, 10mer-Thr-FAM probe, WDR5-His tag 2 nM, pH 7.0
Classes are defined on Ki with ranges bucket A: < 0.5 nM; bucket B: ≥ 0.5 nM and < 2 nM; bucket C: ≥ 2 nM

> print(dat)
                                    compound  label.class
 1  COc1ccnc(CNC(=O)c2cc(Cn3ccn(C)c3=N)cc(-c3cc(C)ccc3OC)c2)c1 [Example 10]     bucket B
 2  Cc1nc(F)ccc1-c1cc(Cn2ccn(C)c2=N)cc(C(=O)NCc2ccc(Cl)c(Cl)c2)c1 [Example 1]     bucket A
 3  COc1cc(CNC(=O)c2cc(Cn3ccn(C)c3=N)nc(-c3ccc(F)cc3C)c2)cc(OC)c1 [Example 365]     bucket B
 4  CCn1cc(-c2cc(Cn3ccn(C4CC4)c3=N)cc(C(=O)N[C@H](c3ccc(Cl)c(Cl)c3)C3CC3)c2)c(C(F)(F)F)n1 [Example 162]     bucket A
 5  Cc1cc([C@@H](NC(=O)c2cc(CN3CCOC3=N)cc(-c3ccc(F)cc3C(F)(F)F)c2F)C2CC2)ccc1F [Example 283]     bucket A
 6  COc1cc(OC)cc([C@@H](NC(=O)c2cc(Cn3ccoc3=N)cc(-c3ccc(F)cc3Cl)c2)C2CC2)c1 (stereo in doubt) [Example 249]     bucket A
 7  Cc1cc(F)ccc1-c1cc(Cn2cc[nH]c2=N)cc(C(=O)NCc2ccc(Cl)c(Cl)c2)n1 [Example 6]     bucket C
 8  Cc1cc([C@@H](NC(=O)c2cc(Cn3ccn(C)c3=N)cc(N3CCC[C@H]3C(F)(F)F)c2)C2CC2)ccc1F [Example 223]     bucket B
 9  Cn1ccn(Cc2cc(C(=O)NCc3ccc(Cl)c(Cl)c3)cc(-c3cccc4c3OC(F)(F)O4)c2)c1=N [Example 168]     bucket C
10  Cc1ccnc(C(NC(=O)c2cc(Cn3ccn(C)c3=N)cc(-c3ccnn3C)c2)C2CC2)c1 (stereo not drawn) [Example 12]     bucket B
11  Cc1cc([C@@H](NC(=O)c2cc(Cn3ccoc3=N)cc(-c3cccnc3OC(F)F)c2)C2CC2)ccc1F [Example 261]     bucket A

* * *

test system: MV4:11 human cancer cell lines; test: Anti-proliferative activity, CellTiter-Glo viability assay, 7 day protocol; assay type: cell-based; conditions: Homo sapiens, MV4-11, 168 h, MV4:11 cells, 7 day incubation, read-out: GI50 on cellular proliferation of MV4:11 human cancer cell lines
parameter: GI50

> print(dat)
                                   molecule  parameter    result
1  Cc1cc([C@H](NC(=O)c2cc(Cn3ccoc3=N)cc(-c3ccc(F)cc3C)c2)C(F)(F)F)ccc1F [Example 231]       GI50    870 nM
2  Cc1cc([C@@H](NC(=O)c2cc(Cn3ccn(C)c3=N)cc(-c3ccc(F)cc3OC(F)F)c2)C2CC2)ccc1F [Example 73]       GI50   1800 nM
3  COc1cc(OC)cc(C(NC(=O)c2cc(Cn3ccn(C)c3=N)cc(-c3ncccc3C(F)(F)F)c2)C2CC2)c1 (stereo not shown) [Example 61]       GI50   4200 nM
4  Cc1cc([C@@H](NC(=O)c2cc(Cn3cccc(F)c3=N)cc(-c3cn(C)nc3C(F)(F)F)c2)C2CC2)ccc1F [Example 351]       GI50  < 100 nM
5  Cc1cc([C@@H](NC(=O)c2cc(Cn3ccn(C)c3=N)cc(-c3cn(C)nc3C(F)(F)F)c2)C2CC2)ncc1F [Example 205]       GI50  < 100 nM
6  CCn1cc(-c2cc(CN3CCN(C)C3=N)cc(C(=O)N[C@H](c3ccc(F)c(F)c3)C3CC3)c2)c(C(F)(F)F)n1 [Example 213]       GI50  < 100 nM
7  Cc1cc([C@@H](NC(=O)c2cc(Cn3ccn(C)c3=N)cc(-c3ccc(F)cc3C)c2)C2CC2)ccc1F [Example 54]       GI50  < 100 nM

* * *

target: WDR5 (Homo sapiens (Human), UniProt P61964); test: TR-FRET binding assay (displacement of 10mer-Thr-FAM probe from WDR5)
Recorded Ki values for a group of compounds are listed next.
parameter: Ki

> print(dat)
                                   compound                               system.name    result
1  Cc1cc([C@@H](NC(=O)c2cc(Cn3ccn(C)c3=N)cc(-c3ccc(F)cc3C(F)(F)F)c2)C2CC2)ccc1F [Example 188]  WDR5 (Homo sapiens (Human), UniProt P61964)  < 0.1 nM
2  COc1cccc(-c2cc(Cn3ccn(C)c3=N)cc(C(=O)NCc3ccc(Cl)c(Cl)c3)c2)n1 [Example 169]  WDR5 (Homo sapiens (Human), UniProt P61964)     23 nM
3  Cc1cc([C@@H](NC(=O)c2cc(Cn3ccn(C)c3=N)cc(-c3cn(C)nc3C(F)(F)F)c2)C2CC2)ccc1F [Example 125]  WDR5 (Homo sapiens (Human), UniProt P61964)  < 0.1 nM
4  CCn1cc(-c2cc(CN3CCN(C)C3=N)cc(C(=O)N[C@H](c3ccc(F)c(F)c3)C3CC3)c2)c(C(F)(F)F)n1 [Example 213]  WDR5 (Homo sapiens (Human), UniProt P61964)  < 0.1 nM
5  CCn1cc(-c2cc(CN3CCN(C)C3=N)cc(C(=O)N[C@H](c3ccc(F)c(C)c3)C3CC3)c2)c(C(F)(F)F)n1 [Example 212]  WDR5 (Homo sapiens (Human), UniProt P61964)  < 0.1 nM
6  Cc1cc([C@@H](NC(=O)c2cc(CN3CCN(C)C3=N)cc(-c3cn(C(C)C)nc3C(F)(F)F)c2)C2CC2)ccc1F [Example 215]  WDR5 (Homo sapiens (Human), UniProt P61964)  < 0.1 nM
